Where do these numbers come from? They come from the supplement of paper PMC8253809.

Tested on: HGGX39 (paediatric high-grade glioma line)
experimental.protocol: growth inhibition (% activity, log2 RLU normalised to DMSO / staurosporine); higher = more growth inhibition
condition.set: 33 µM
Reported growth inhibition values follow for various compounds
measurement.kind: growth inhibition

COc1ccc(-c2ccc3cc(C(=O)O)ccc3c2)cc1C12CC3CC(CC(C3)C1)C2; 2.84%
O=C(O)c1ccc(NC(=O)[C@H](Cc2ccc(O)cc2)NC(=O)c2ccccc2)cc1; -2.55%
COc1ccc(CN(CCN(C)C)c2ccccn2)cc1; 2.69%
Cc1ccc(N(CC2=NCCN2)c2cccc(O)c2)cc1; -2.42%
CCC(=O)O[C@]1(C(=O)CCl)[C@@H](C)C[C@H]2[C@@H]3CCC4=CC(=O)C=C[C@]4(C)[C@@]3(F)[C@@H](O)C[C@@]21C; 8.62%

----------
System: HGGX39
experimental.protocol: growth inhibition (% activity, log2 RLU normalised to DMSO / staurosporine); higher = more growth inhibition
condition.set: 33 µM
measurement.kind: growth inhibition (%)

CC(=O)N[C@@H](CS)C(=O)O; -0.994
CCCCN(CCCC)CCCOC(=O)c1ccc(N)cc1; 6.95
CCC(=O)NCC[C@@H]1CCc2ccc3c(c21)CCO3; 1.29
C=CCNC(N)=S; 1.56
O=C(O)CCCN1CCC(O[C@@H](c2ccc(Cl)cc2)c2ccccn2)CC1; 0.636
CC(=O)[C@H]1CC[C@H]2[C@@H]3CCC4=CC(=O)CC[C@]4(C)[C@H]3CC[C@]12C; 4.64
CN1CCC(=C2c3ccccc3CCc3sccc32)CC1; 7.57
O=C(O)C1(C(=O)O)CCC1.[NH2-].[NH2-].[Pt+2]; -2.69
CN(C)C(=N)NC(=N)N; -3.04
CCOc1cc(CC(=O)N[C@@H](CC(C)C)c2ccccc2N2CCCCC2)ccc1C(=O)O; 0.171
CC[C@H](C)C[C@H](C)CCCCCCCCC(=O)N[C@H]1C[C@@H](O)[C@@H](NCCN)NC(=O)[C@@H]2[C@@H](O)CCN2C(=O)[C@H]([C@H](O)CCN)NC(=O)[C@H]([C@H](O)[C@@H](O)c2ccc(O)cc2)NC(=O)[C@@H]2C[C@@H](O)CN2C(=O)[C@H]([C@@H](C)O)NC1=O; 2.93
CO[C@H]1C[C@@H]2CC[C@@H](C)[C@@](O)(O2)C(=O)C(=O)N2CCCC[C@H]2C(=O)O[C@H]([C@H](C)C[C@@H]2CC[C@@H](OCCO)[C@H](OC)C2)CC(=O)[C@H](C)/C=C(\C)[C@@H](O)[C@@H](OC)C(=O)[C@H](C)C[C@H](C)/C=C/C=C/C=C/1C; 8.9
COCCOC(=O)C1=C(C)NC(C)=C(C(=O)OC/C=C/c2ccccc2)C1c1cccc([N+](=O)[O-])c1 (stereo unspecified); 5.91
CCCCCCCCCCCCCCCCCCCCCCO; -0.179
CN1C(C(=O)Nc2ccccn2)=C(O)c2ccccc2S1(=O)=O; 0.433
COc1cc(C(C)=O)ccc1OCCCN1CCC(c2noc3cc(F)ccc23)CC1; 4.35

----------
Tested on: DIPGX37 (H3.3 K27M diffuse intrinsic pontine glioma line)
experimental.protocol: growth inhibition (% activity, log2 RLU normalised to DMSO / staurosporine); higher = more growth inhibition
condition.set: 33 µM
measurement.kind: growth inhibition (%)

CN1[C@@H]2CC[C@H]1CC(OC(=O)c1c[nH]c3ccccc13)C2 (stereo partly specified); 5.76
CC(C)(S)[C@@H](N)C(=O)O; -0.325
CC1=C(/C=C/C(C)=C/C=C/C(C)=C/C=C/C=C(C)/C=C/C=C(C)/C=C/C2=C(C)CCCC2(C)C)C(C)(C)CCC1; -1.75
CCN[C@H]1C[C@H](C)S(=O)(=O)c2sc(S(N)(=O)=O)cc21; -1.68
Oc1ccc(/C=C/c2cc(O)cc(O)c2)cc1; -0.532
Cc1cc(C#N)cc(C)c1Oc1nc(Nc2ccc(C#N)cc2)nc(N)c1Br; -3.38

----------
Tested on: SUDIPGVI (diffuse intrinsic pontine glioma line)
experimental.protocol: growth inhibition (% activity, log2 RLU normalised to DMSO / staurosporine); higher = more growth inhibition
condition.set: 33 µM
measurement.kind: growth inhibition

Cc1ccc(S(=O)(=O)NC(=O)NN2CCCCCC2)cc1; -0.0433%
COc1cc2nccc(Oc3ccc(NC(=O)C4(C(=O)Nc5ccc(F)cc5)CC4)cc3)c2cc1OC; 5.98%
N#C[C@@H]1CCCN1C(=O)CNC12CC3CC(CC(O)(C3)C1)C2; -3.27%
CC(=O)OCC(=O)[C@@]1(O)CC[C@H]2[C@@H]3CCC4=CC(=O)C=C[C@]4(C)[C@H]3[C@@H](O)C[C@@]21C; -1.15%
CN(C)CCCN1c2ccccc2CCc2ccccc21; -0.367%
C#CC1(O)CC[C@H]2[C@@H]3CCC4=CC(=O)CC[C@@H]4[C@H]3CC[C@@]21CC (stereo partly drawn); 1.24%
Clc1ccc2nsnc2c1NC1=NCCN1; -2.56%
CC(=O)NC[C@H]1CN(c2ccc(N3CCOCC3)c(F)c2)C(=O)O1; 1.21%
Nc1nc(N)nc(-c2cc(Cl)ccc2Cl)n1; -0.709%
O=C(O)c1cc(/N=N/c2ccc(O)c(C(=O)O)c2)ccc1O; -2.65%
Oc1c(Cl)cc(Cl)c2cccnc12; 4.23%
CC(C)(C)CC(C)(C)c1ccc(OCCOCC[N+](C)(C)Cc2ccccc2)cc1; 64.5%
CC1(C)O[C@@H]2[C@@H](CO[C@@]3(COS(N)(=O)=O)OC(C)(C)O[C@@H]23)O1; -3.08%
O=C1c2cccc3c2[C@H](CCC3)CN1[C@@H]1CN2CCC1CC2; 0.132%
CO/N=C(\C(=O)N[C@@H]1C(=O)N2C(C(=O)O)=C(CSC(=O)c3ccco3)CS[C@H]12)c1csc(N)n1; -0.598%
CCCCOc1cc(C(=O)NCCN(CC)CC)c2ccccc2n1; 3.16%
COC(=O)C1=C(C)NC(C)=C(C(=O)OCCN2CCN(C(c3ccccc3)c3ccccc3)CC2)C1c1cccc([N+](=O)[O-])c1 (stereo not drawn); 6.07%
CC/C(=C(/CC)c1ccc(O)cc1)c1ccc(O)cc1; 0.165%
C1N2CN3CN1CN(C2)C3; 1.89%
Nc1nc(F)nc2c1ncn2[C@@H]1O[C@H](COP(=O)(O)O)[C@@H](O)[C@@H]1O; -2.06%
COc1ccc2cccc(CCNC(C)=O)c2c1; -2.45%
O=C(NC[C@H]1CN(c2ccc(N3CCOCC3=O)cc2)C(=O)O1)c1ccc(Cl)s1; -0.593%
CCC1=C(C)CN(C(=O)NCCc2ccc(S(=O)(=O)NC(=O)N[C@H]3CC[C@H](C)CC3)cc2)C1=O; 1.62%
O=NN(CCCl)C(=O)NC1CCCCC1; 2.64%
Cc1cn([C@H]2C[C@H](N=[N+]=[N-])[C@@H](CO)O2)c(=O)[nH]c1=O; 3.71%
CC[C@@H]1C(=O)OC[C@@H]1Cc1cncn1C; 0.518%
CCCSc1nc(N[C@@H]2C[C@H]2c2ccc(F)c(F)c2)c2nnn([C@@H]3C[C@H](OCCO)[C@@H](O)[C@H]3O)c2n1; 3.52%
CN1C(C(=O)Nc2ccccn2)=C(O)c2sccc2S1(=O)=O; 0.891%
COCCCOc1cc(C[C@@H](C[C@H](N)[C@@H](O)C[C@H](C(=O)NCC(C)(C)C(N)=O)C(C)C)C(C)C)ccc1OC; 2.75%
COC(=O)C1=CO[C@@H](O[C@@H]2O[C@H](CO)[C@@H](O)[C@H](O)[C@H]2O)[C@@H]2C(CO)=CC[C@H]12; -2.76%
O=c1[nH]cc(F)c(=O)[nH]1; 4.5%
O=C(C1CCCCC1)N1CC(=O)N2CCc3ccccc3C2C1 (stereo not drawn); 3.33%
NCCCCCC(=O)O; 0.903%

----------
Test system: SUDIPGIV (diffuse intrinsic pontine glioma line)
experimental.protocol: growth inhibition (% activity, log2 RLU normalised to DMSO / staurosporine); higher = more growth inhibition
condition.set: 33 µM
measurement.kind: growth inhibition (%)

CC(C)C(=O)Oc1ccc(CO)cc1[C@H](CCN(C(C)C)C(C)C)c1ccccc1; -0.518
Nc1cc(C(Cl)=C(Cl)Cl)c(S(N)(=O)=O)cc1S(N)(=O)=O; 1.51
NNC(=O)c1ccncc1; 3.88
CC1(C)S[C@@H]2[C@H](NC(=O)[C@H](NC(=O)N3CCNC3=O)c3ccccc3)C(=O)N2[C@H]1C(=O)O; -0.88
CN1C(C(=O)Nc2ccccn2)=C(O)c2sccc2S1(=O)=O; -4.89
COc1cc(Cc2cnc(N)nc2N)cc(OC)c1OC; 2.24
C[C@@H]1C[C@H]2[C@@H]3CCC4=CC(=O)C=C[C@]4(C)[C@@]3(Cl)[C@@H](O)C[C@]2(C)[C@@]1(OC(=O)c1ccco1)C(=O)CCl; 14.2
Cc1ccccc1C(=O)Nc1ccc(C(=O)N2CCCC(O)c3cc(Cl)ccc32)c(C)c1 (configuration not stated); 2.35
CN1CCCCC1CCN1c2ccccc2Sc2ccc([S+](C)[O-])cc21 (configuration not stated); -1.02
C=C1/C(=C\C=C2/CCC[C@]3(C)[C@@H]([C@H](C)CCCC(C)(C)O)CC[C@@H]23)C[C@@H](O)C[C@@H]1O; 9.51
CCCC(=O)Nc1ccc(OCC(O)CNC(C)C)c(C(C)=O)c1 (configuration not stated); -0.848
CCN[C@@H]1C[C@H](N)[C@@H](O[C@H]2OC(CN)=CC[C@H]2N)[C@H](O)[C@H]1O[C@H]1OC[C@](C)(O)[C@H](NC)[C@H]1O; 3.28
Cc1nc(-c2ccc(OCC(C)C)c(C#N)c2)sc1C(=O)O; -0.558
CN(C)CCOC(c1ccccc1)c1ccccc1; -1.12
CCOc1cc(CC(=O)N[C@@H](CC(C)C)c2ccccc2N2CCCCC2)ccc1C(=O)O; -0.496
N#Cc1ccc(C(c2ccc(C#N)cc2)n2cncn2)cc1; -0.66
COC(=O)C1=CO[C@@H](O)[C@@H]2C(CO)=CC[C@H]12; -0.3
Nc1nc(NC2CC2)c2ncn([C@H]3C=C[C@@H](CO)C3)c2n1; 2.42
C[C@H]1O[C@H](O[C@H]2[C@H](O)[C@@H](O)[C@@H](O[C@H]3[C@H](O)[C@@H](O)C(O)O[C@@H]3CO)O[C@@H]2CO)[C@H](O)[C@@H](O)[C@@H]1N[C@H]1C=C(CO)[C@@H](O)[C@H](O)[C@H]1O (some centres not stated); -2.71
CCN(CC)C(=S)SSC(=S)N(CC)CC; -0.505
CCCCC(=O)O[C@]1(C(=O)CO)[C@@H](C)C[C@H]2[C@@H]3CCC4=CC(=O)C=C[C@]4(C)[C@@]3(F)[C@@H](O)C[C@@]21C; 0.551
CC(C)C[C@H](NC(=O)[C@H](CCc1ccccc1)NC(=O)CN1CCOCC1)C(=O)N[C@@H](Cc1ccccc1)C(=O)N[C@@H](CC(C)C)C(=O)[C@@]1(C)CO1; 55
C=C1/C(=C\C=C2/CCC[C@]3(C)[C@@H]([C@H](C)CCCC(C)C)CC[C@@H]23)C[C@@H](O)C[C@@H]1O; 0.347
CCCCCN(C)CCC(O)(P(=O)(O)O)P(=O)(O)O; -4.22
Nc1nc(Cl)nc2c1ncn2[C@@H]1O[C@H](CO)[C@@H](O)[C@@H]1F; 45
CCCCOc1cc(C(=O)NCCN(CC)CC)c2ccccc2n1; 2.91
C[C@H](Cn1cnc2c(N)ncnc21)OCP(=O)(O)O; -2.6
